# SYSTEM TESTED: His-tagged G3BP1 NTF2 (peptide arrays) (human, UniProt Q13283 1-139)
# Sequence (Q13283 1-139): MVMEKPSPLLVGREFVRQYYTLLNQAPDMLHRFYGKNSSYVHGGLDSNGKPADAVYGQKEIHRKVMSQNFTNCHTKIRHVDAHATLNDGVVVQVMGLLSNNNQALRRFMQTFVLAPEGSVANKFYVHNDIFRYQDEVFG
# MEASUREMENT PROTOCOL: peptide or protein array
VALUE KIND: binding result

Example cases with answers are listed next.
QGPYLFIQDSMLDFENQTLD [Caprin1 peptide N371L (SPOT array)]    binds
QGPYTFIQDSMLDFENQTLD [Caprin1 peptide N371T (SPOT array)]    binds
QGPYEFIQDSMLDFENQTLD [Caprin1 peptide N371E (SPOT array)]    binds
QGPYIFIQDSMLDFENQTLD [Caprin1 peptide N371I (SPOT array)]    binds
QGPYMFIQDSMLDFENQTLD [Caprin1 peptide N371M (SPOT array)]    binds

For each of the items listed, what is its binding result?
1. QGPYVFIQDSMLDFENQTLD [Caprin1 peptide N371V (SPOT array)]
2. QGPYYFIQDSMLDFENQTLD [Caprin1 peptide N371Y (SPOT array)]

1. binds
2. binds
